From: PubChem BioAssay (NCI)

Listing of recorded TGI by entry.
- Tested on: DU-145 prostate
- Measurement Description: NCI tumour cell line growth inhibition, 48 h

- Compound: "COc1ccc(C(CC(=O)c2ccc3c(c2)OCO3)c2c(O)c3ccccc3oc2=O)cc1OC (configuration not stated)"
  Assay Target: "DU-145 prostate"
  TGI: "> 100 µM"
- Compound: "COC(=O)C1=COC(C)C2CN3CCc4c([nH]c5ccccc45)C3CC12 (configuration not stated)"
  Assay Target: "DU-145 prostate"
  TGI: "> 100 µM"
- Compound: "COc1ccc(-c2nccn2-c2ccc(OC)cc2)cc1"
  Assay Target: "DU-145 prostate"
  TGI: "> 93.8 µM"
- Compound: "C[C@@H](Cl)[C@H]1CCCN(Cc2ccc(Br)cc2)C1"
  Assay Target: "DU-145 prostate"
  TGI: "> 12.5 µM"
- Compound: "CC(C)=CCC/C(C)=C/COC(C)(C)C1=CCC(C)CC1 (configuration not stated) (tested in a mixture with another compound)"
  Assay Target: "DU-145 prostate"
  TGI: "> 100 µM"
- Compound: "CC1(C)CN=C(NN=C(/C=C/c2ccc(C(F)(F)F)cc2)/C=C/c2ccc(C(F)(F)F)cc2)NC1"
  Assay Target: "DU-145 prostate"
  TGI: "2.22 µM"
- Compound: "COC(=O)CCc1cc(OC)c2c(c1)[C@H](C(=O)OC)[C@@H](c1ccc(O)c(OC)c1)O2"
  Assay Target: "DU-145 prostate"
  TGI: "> 100 µM"
- Compound: "Cc1cc(N/N=C/c2ccccn2)nc2ccccc12"
  Assay Target: "DU-145 prostate"
  TGI: "14.3 µM"
- Compound: "COc1cc(-c2cc(=O)c3cc4c(=O)cc(-c5cc(OC)c(OC)c(OC)c5)oc4cc3o2)cc(OC)c1OC"
  Assay Target: "DU-145 prostate"
  TGI: "> 100 µM"
- Compound: "CCCCCCCCCCNC(=O)CI"
  Assay Target: "DU-145 prostate"
  TGI: "3.72 µM"
- Compound: "COC(C)(C)[C@@H](O)[C@H]1C[C@H](C)[C@@]2(CC[C@]3(C)[C@@H]2CC[C@@H]2[C@@]4(C)CC[C@@H](OC(C)=O)C(C)(C)[C@@H]4C[C@@H](OC4OC(COC(C)=O)C(O)C(O)C4O)[C@]23C)O1 (some centres not stated)"
  Assay Target: "DU-145 prostate"
  TGI: "15.7 µM"
- Compound: "O=C(Cc1ccccc1)NN1C(=O)/C(=C\\c2ccccc2)SC1=Nc1ccccc1"
  Assay Target: "DU-145 prostate"
  TGI: "> 100 µM"
